# System: isolated cavernous body of rabbit
# PROTOCOL: Relaxing effect on isolated cavernous body of rabbit pre-contracted with phenylephrine
# Type: cell-based
# ASSAY SETUP: Oryctolagus cuniculus; cavernous body of rabbit previously contracted with phenylephrine; cumulative concentrations 1 to 1000 nM; value with interval in brackets
# Experimental: Experiments used male rabbits weighing between 3.5 and 4.0 Kg. The animals were anesthetized with sodium pentobarbital (40 mg/kg, i.p), and the abdominal cavity opened for the withdrawal of the penis from the animals. […] The relaxation responses caused by the compounds were calculated in relation to the contractile response of phenylephrine, which is considered as 100% of contraction. […]
ASSAY ENDPOINT: pEC50
Recall that pEC50 is obtained by taking minus log10 of the concentration measured in molar.

Sample CN1CC(=O)N[C@H](Cc2c(C(=O)c3ccc4c(c3)OCO4)[nH]c3ccccc23)C1=O ; pEC50 observed: 7.80
